Test system: TNF-α convertases
Assay Explanation: In vitro assays for TNF-α convertase activity (protease inhibitor profile)
Type: biochemical
Run Parameters: 100 μM
Method: For the assay of convertase activity associated with or isolated from membrane preparations, a protein-based assay was carried out essentially as described by Mohler et al., Nature 370:218 (1995). […] To test for convertase activity, a membrane protein sample was mixed in 50 μl with 1 μg peptide substrate in the presence of inhibitors (0.2 mM AEBSF, 2 μM pepstatin, 200 μM leupeptin, 1 mM AAPV). […] The elution of DNP-peptide was monitored at 360 nm using a Waters 625 LC system.

Molecule | System Tested | inhibition of TNF-α convertases
CC(C)C[C@H](NC(=O)[C@H]1O[C@@H]1C(=O)O)C(=O)NCCCCN=C(N)N (relative stereo) | TNF-α convertases | Not inhibited
C[C@H](CS)C(=O)N1CCC[C@H]1C(=O)O | TNF-α convertases | Not inhibited
O=c1oc(Cl)c(Cl)c2ccccc12 | TNF-α convertases | Not inhibited
O=C(O)CNC(=O)C(CS)Cc1ccccc1 (stereo not shown) | TNF-α convertases | Not inhibited
